Origin of measurements: patent US20110038885A1

# Test system: IL-8
# test: In vitro chemotaxis, inhibition v IL-8
# Format: cell-based, human
# Set-up: concentration or dose not given beside the values
Bridge positions count the residues as written; N and C are the ends. Square brackets hold non-standard residues; d marks the D form. Peptide text beside a SMILES is read from it. * marks the point of attachment. Lauroyl = CCCCCCCCCCCC(=O)*; Dab = NCC[C@H](N)C(=O)O; Ahx = NCCCCCC(=O)O
assayEndpoint: v IL-8 inhibition (%)
The answer is to be given in %; state only the numeric part.

Suppose we examine the compound CC[C@H](C)[C@@H]1NC(=O)[C@H](Cc2c[nH]c3ccccc23)NC(=O)[C@H](CCCCN)NC(=O)[C@H](CCC(N)=O)NC(=O)[C@H](CCCCN)NC(=O)[C@@H]2CCCN2C(=O)[C@@H](CC(=O)O)NC(=O)[C@H](CC(C)C)NC(=O)[C@@H](NC(C)=O)CSSC[C@@H](C(N)=O)NC(=O)[C@H](CCC(N)=O)NC1=O [Example 31] (Ac-CL[dD]PKQKWIQC-NH2; disulfide 1-11) ; what v IL-8 inhibition (%) value has been reported?
95.8

What measured v IL-8 inhibition (%) goes with CC[C@H](C)[C@@H]1NC(=O)[C@H](Cc2c[nH]c3ccccc23)NC(=O)[C@H](CCCCN)NC(=O)[C@H](CCC(N)=O)NC(=O)[C@@H](NC(=O)[C@H](CCCCN)NC(=O)[C@@H]2CCCN2C(=O)[C@H](CC(=O)O)NC(=O)[C@H](CC(C)C)NC(C)=O)CSSC[C@@H](C(N)=O)NC(=O)[C@H](CCC(N)=O)NC1=O [Example 22] (Ac-LDPKCQKWIQC-NH2; disulfide 5-11) ?
16.8

Which measured v IL-8 inhibition (%) value corresponds to CC(C)(C)OC(=O)N[C@@H](Cc1c[nH]c2ccccc12)C(=O)NCCC(=O)NC1CCC(=O)NC1=O (stereo partly drawn) [Example 165, BOC-Trp-βA1a-α-aminoglutaramide] ?
111.5

v IL-8 inhibition (%) lookup needed for CC[C@H](C)[C@@H]1NC(=O)[C@H](Cc2c[nH]c3ccccc23)NC(=O)[C@H](CCCCN)NC(=O)[C@H](CCC(N)=O)NC(=O)[C@H](CCCCN)NC(=O)[C@@H]2CCCN2C(=O)[C@@H](NC(=O)[C@H](CC(=O)O)NC(=O)[C@H](CC(C)C)NC(C)=O)CSSC[C@@H](C(N)=O)NC(=O)[C@H](CCC(N)=O)NC1=O [Example 20] (Ac-LDCPKQKWIQC-NH2; disulfide 3-11) , thanks.
93.9

Quick check: v IL-8 inhibition (%) of CCCCCCCCCCCC(=O)NCCCC[C@H](NC(C)=O)C(=O)N[C@H]1CSSC[C@@H](C(N)=O)NC(=O)[C@H](CCC(N)=O)NC(=O)[C@H]([C@@H](C)CC)NC(=O)[C@H](Cc2c[nH]c3ccccc23)NC(=O)[C@H](CCCCN)NC(=O)[C@H](CCC(N)=O)NC(=O)[C@H](CCCCN)NC(=O)[C@@H]2CCCN2C(=O)[C@H](CC(=O)O)NC(=O)[C@H](CC(C)C)NC1=O [Example 162] (Ac-K(Lauroyl)CLDPKQKWIQC-NH2; disulfide 2-12) ?
101.1

Can you share its v IL-8 inhibition (%)? I mean this compound: CC[C@H](C)[C@@H]1NC(=O)[C@H](Cc2c[nH]c3ccccc23)NC(=O)[C@H](CCCCN)NC(=O)[C@@H](NC(=O)[C@H](CCC(N)=O)NC(=O)[C@@H](N)CCCCN)CSSC[C@@H](C(N)=O)NC(=O)[C@H](CCC(N)=O)NC1=O [Example 48, Lys-Gln-c(Cys-Lys-Trp-Ile-Gln-Cys)-NH2] (H-KQCKWIQC-NH2; disulfide 3-8)
91.9

# get_value(readout='v IL-8 inhibition (%)', item= CC[C@H](C)[C@@H]1NC(=O)[C@H](Cc2c[nH]c3ccccc23)NC(=O)[C@H](CCCCN)NC(=O)[C@H](CCC(N)=O)NC(=O)[C@H](CCCCN)NC(=O)[C@@H]2CCCN2C(=O)[C@H](CC(=O)O)NC(=O)[C@H](CC(C)C)NC(=O)[C@@H](NC(C)=O)CSSC[C@@H](C(=O)N[C@@H](CCN)C(N)=O)NC(=O)[C@H](CCC(N)=O)NC1=O [Example 18] (Ac-CLDPKQKWIQC[Dab]-NH2; disulfide 1-11) )
103.5

I'd like to know its v IL-8 inhibition (%). The compound in question is CC[C@H](C)[C@@H]1NC(=O)[C@@H](Cc2c[nH]c3ccccc23)NC(=O)[C@H](CCCCN)NC(=O)[C@H](CCC(N)=O)NC(=O)[C@H](CCCCN)NC(=O)[C@@H]2CCCN2C(=O)[C@H](CC(=O)O)NC(=O)[C@H](CC(C)C)NC(=O)[C@@H](NC(C)=O)CSSC[C@@H](C(N)=O)NC(=O)[C@H](CCC(N)=O)NC1=O [Example 26] (Ac-CLDPKQK[dW]IQC-NH2; disulfide 1-11)
94.9

State the recorded v IL-8 inhibition (%) for this entry: CC[C@H](C)[C@@H]1NC(=O)[C@H](Cc2c[nH]c3ccccc23)NC(=O)[C@H](CCCCN)NC(=O)[C@H](CCC(N)=O)NC(=O)[C@H](CCCCN)NC(=O)[C@@H]2CCCN2C(=O)[C@H](CC(=O)O)NC(=O)[C@H](CC(C)C)NC(=O)[C@@H](N)CSSC[C@H](C(N)=O)NC(=O)[C@H](CCC(N)=O)NC1=O [Example 36] (H-CLDPKQKWIQ[dC]-NH2; disulfide 1-11)
21.8

// query v IL-8 inhibition (%) value for entry CC[C@H](C)[C@@H]1NC(=O)[C@H](Cc2c[nH]c3ccccc23)NC(=O)[C@H](CCCCN)NC(=O)[C@H](CCC(N)=O)NC(=O)[C@H](CCCCN)NC(=O)[C@@H]2CCCN2C(=O)[C@H](CC(=O)O)NC(=O)[C@H](CC(C)C)NC(=O)[C@@H](NC(=O)[C@@H](CC(=O)O)NC(=O)[C@H](N)CCCCN)CSSC[C@@H](C(N)=O)NC(=O)[C@H](CCC(N)=O)NC1=O [Example 167] (H-[dK][dD]CLDPKQKWIQC-NH2; disulfide 3-13)
99.6

What v IL-8 inhibition (%) value was documented for this compound, CC[C@@H](C)[C@H]1NC(=O)[C@@H](CCC(N)=O)NC(=O)[C@H](N)CSSC[C@H](C(=O)NCCCCCC(=O)O)NC(=O)[C@@H](CC(C)C)NC(=O)[C@@H](CC(=O)O)NC(=O)[C@H]2CCCN2C(=O)[C@@H](CCCCN)NC(=O)[C@@H](CCC(N)=O)NC(=O)[C@@H](CCCCN)NC(=O)[C@@H](Cc2c[nH]c3ccccc23)NC1=O [Example 143] (H-[dC][dQ][dI][dW][dK][dQ][dK][dP][dD][dL][dC][Ahx]-OH; disulfide 1-11) ?
103.5
